# assayName: Pharmacokinetic study of RXFP2 mAbs in rat
# Type: in vivo, Wistar Han rats
# cond: male Wistar Han rats, 1 mg/kg s.c., n = 3, mean ± SD
Collected AUClast values appear next to each entry.
Give the value, in units of µg·h/mL, as a plain number.

{"molecule": "1G1: RXFP2 monoclonal antibody from hybridoma, recombinantly expressed in a rat IgG2b backbone (antibody, V domains shown) VH: EVQLQQSGPELVKPGASVKMSCKASGYTFTDYNMHWVKQKPGQGLEWIGYINPYNDGTEYNEKFKGKATLTSDKSSSTAYMDLSSLTSEDSAVYYCARGLWFAMNYWGQGTSVTVSS VL: DIQMTQSSSSFSVSLGDRVTITCKASEDIYNRLAWYQQKPGNTPRLLISGATILETGVPSRFSGSGSGKDYTLSIISLQTEDVATYYCQQYWIIPPTFGGGTKLEIK", "scaleUnit": "µg·h/mL", "AUClast": 4490}
{"molecule": "3F3: RXFP2 monoclonal antibody from hybridoma, recombinantly expressed in a rat IgG2b backbone (antibody, V domains shown) VH: QVQLQQPGSVLVRPGASVKLSCKASGYIFTSYWMHWVKQRPGQGLEWIGEIYPNSGRTSYNEKFKGKATVTVDTSSSTAYVDLSSLTSEDSAVYYCASGGHWFAYWGQGTLVTVSA VL: DIQMTQSSSSFSVSLGDRVTITCKASEDIYNRLAWYQQKPGNAPRLLISGATSLEAGVPSRFSGSGSGKDYTLSITSLQTEDVSTYYCQQYWITPYTFGGGTKLEIK", "scaleUnit": "µg·h/mL", "AUClast": 987}

Ask | Fill in: AUClast of 4G6: Human/rat cross-reactive RXFP2 monoclonal antibody, rat IgG2b backbone; binds the LDLa domain (antibody, V domains shown) VH: EVQLQQSGPELVKPGASVKLSCKASGYTFTSYVMHWVKQKPEQGLEWIGYKNPSNDGIKYNEKFKGKATLTSDKSSNIAYMELFSLTSEDSAVYYCARSDFGSVWAMDYWGQGTSVTVSS VL: SIVMTQTPKFLLVSAGDRVTITCKASQSVNDDIVWYQQKPGQSPKLLIYYASNRYTGVPDRFTGSGYGTDFTFTISTVQAGDLAVYFCQQDYSSPFTFGSGTKLEIK is ___
Reply | 1350

Ask | Report AUClast for 1F2: RXFP2 monoclonal antibody from hybridoma, recombinantly expressed in a rat IgG2b backbone (antibody, V domains shown) VH: QVQLKQSGPGLVQPSQSLSITCTVSGFSLTAYGVNWVRQSPGKGLEWLGVIWSGGNTDYNAPFISRLSITKDNSKSQVFFKMNSLEADDTAIYYCARAKGYYAMDYWGQGTSVTVSS VL: DIQMTQSPASLSVSVGESVTITCRATENIYSNLVWYQQKQGQSPQLLVYAVTSLADGVPSRFSGSGSGTQYSLKINSLQSEDFGTYYCQHFWGTPYTFGGGTKLEIK please.
Reply | 3530

Measured values drawn from paper PMC11162469 for this set.
